// provenance: patent US20220282217A1

Please provide measured IC50 for the entries that follow.
molecular target: HLA-A02.01 (Homo sapiens, UniProt P04439, D140Y/D185E/D98H/E176V/E277Q/G131W/G231S/I119V/I121R/I166T/I218V/L300P/L318F/N151K/N90K/P208A/P217A/Q86G/Q94H/R138H/R169H/T345S); assay: Class I MHC peptide binding affinity (displacement of radiolabeled reference peptide); conditions: Observed Affinity (IC50; (nM)), allele A02.01
Where a SMILES comes first, the peptide text is derived from it.

Fill blank: measured IC50 of the compound CC[C@H](C)[C@H](N)C(=O)N[C@H](C(=O)N[C@@H](CCC(=O)O)C(=O)N[C@@H](Cc1ccccc1)C(=O)N[C@@H](CCSC)C(=O)N[C@H](C(=O)N[C@@H](Cc1ccc(O)cc1)C(=O)NCC(=O)N[C@@H](CC(N)=O)C(=O)N[C@@H](CC(C)C)C(=O)O)[C@@H](C)O)[C@@H](C)CC (H-IIEFMTYGNL-OH; N-terminus and C-terminus assumed) is ____. 9700 nM

Entry CC(C)C[C@H](N)C(=O)N[C@@H](C)C(=O)N[C@H](C(=O)N[C@@H](CCC(=O)O)C(=O)N[C@@H](CCCCN)C(=O)N[C@@H](CO)C(=O)N[C@@H](CCCNC(=N)N)C(=O)N[C@@H](Cc1c[nH]c2ccccc12)C(=O)N[C@@H](CO)C(=O)NCC(=O)O)[C@@H](C)O (H-LATEKSRWSG-OH; N-terminus and C-terminus assumed) has what IC50? 23300 nM
